The values you see were collected from the RNAGym collection of RNA variant scans (doi:10.7554/elife.90254).

B1: OR4K15 (parent)
chain: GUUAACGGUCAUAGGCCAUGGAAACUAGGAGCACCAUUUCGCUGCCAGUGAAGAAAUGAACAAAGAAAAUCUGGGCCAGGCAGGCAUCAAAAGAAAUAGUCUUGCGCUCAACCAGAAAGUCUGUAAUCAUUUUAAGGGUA

Variants of: B1
Assay: self-cleavage, relative activity (ratio to wild type); higher = more cleavage; in vitro, sequencing; the parent is a self-cleaving ribozyme
Assign label 1 to entries whose self-cleavage meets or exceeds 1; assign label 0 to the rest.

Some entries whose results are on file:
- VARIANT DESIGNATION: "A96U A98G"
  LABEL: "label 1"
- VARIANT DESIGNATION: "A5G A78G"
  LABEL: "label 0"
- VARIANT DESIGNATION: "A78U U108G"
  LABEL: "label 0"
- VARIANT DESIGNATION: "A33G A111G"
  LABEL: "label 0"
- VARIANT DESIGNATION: "U2A U131C"
  LABEL: "label 0"

Given A30U A68U , state whether its self-cleavage is at least 1.
label 1

Given A52G G106A , state whether its self-cleavage is at least 1.
label 0

Given U130C A135U , state whether its self-cleavage is at least 1.
label 0

Given A95G C109A , state whether its self-cleavage is at least 1.
label 0

Given C32A , state whether its self-cleavage is at least 1.
label 1

Given A47U A94G , state whether its self-cleavage is at least 1.
label 1
